Reference source for all entries: ChEMBL document CHEMBL3885881

Species: Rattus norvegicus
Assay: DrugMatrix - Regimen: Daily Repeat
Type: toxicity, organism-based, Sprague-Dawley
Set-up: regimen Daily Repeat, gender Male, age 6-8 weeks
Conditions: in vivo, po, 0 mg/kg, 120 h, tissue Plasma, route oral GAVAGE, dose level Control, time 5 day, vehicle .5 % CMC
For each entry below, report its SODIUM value.
Give the number; MEQ/L is assumed, so skip it.

Consider the compound CC[C@@H](CO)NCCN[C@@H](CC)CO [ETHAMBUTOL] and give its measured SODIUM.
150.5

Reported SODIUM, compound C[C@]1(Cn2ccnn2)[C@H](C(=O)O)N2C(=O)C[C@H]2S1(=O)=O [TAZOBACTAM] : ____
143.8

Need SODIUM, item O=C1CCC(N2C(=O)c3ccccc3C2=O)C(=O)N1 (stereo unspecified) [THALIDOMIDE]
148.33

Please look up its SODIUM: CNC(=C[N+](=O)[O-])NCCSCc1ccc(CN(C)C)o1 [RANITIDINE]
142.75

# SODIUM lookup, item Clc1ccc2c(c1)C(N1CCNCC1)=Nc1ccccc1O2 [AMOXAPINE]
143.95

Name the recorded SODIUM for CN1CCC(=C2c3ccccc3C=Cc3ccccc32)CC1 [CYPROHEPTADINE] .
150.17

What does the data say about its SODIUM? Entry: CO[C@H]1/C=C/O[C@@]2(C)Oc3c(C)c(O)c4c(c3C2=O)C2=NC3(CCN(CC(C)C)CC3)NC2=C(NC(=O)/C(C)=C\C=C\[C@H](C)[C@H](O)[C@@H](C)[C@@H](O)[C@@H](C)[C@H](OC(C)=O)[C@@H]1C)C4=O [RIFABUTIN]
142.75

Reported SODIUM for C[C@](O)(CS(=O)(=O)c1ccc(F)cc1)C(=O)Nc1ccc(C#N)c(C(F)(F)F)c1 [(R)-BICALUTAMIDE] : what is it?
143.62

May I ask what SODIUM has been recorded for C#C[C@]1(O)CC[C@H]2[C@@H]3CCc4cc(OC)ccc4[C@H]3CC[C@@]21C [MESTRANOL] ?
142.75

Fill in: SODIUM of OC(CCN1CCCCC1)(c1ccccc1)C1CCCCC1 (stereo unspecified) [TRIHEXYPHENIDYL] is ___
142.65

Can you look up the measured SODIUM of CC(C)[C@H]1CC[C@H](C(=O)N[C@H](Cc2ccccc2)C(=O)O)CC1 [NATEGLINIDE] for me?
143.35

Given CN1C(=O)COc2c(C(=O)NC3CN4CCC3CC4)cc(Cl)cc21 (stereo unspecified) [AZASETRON] , state its recorded SODIUM.
142.8

Give its SODIUM value. Item: N=C(N)NC(=O)c1nc(Cl)c(N)nc1N [AMILORIDE]
150.5

Returns the measured SODIUM for the input compound. Input: O=[N+]([O-])c1ccccc1 [NITROBENZENE]
148.17

Fill blank: measured SODIUM of the compound Cc1onc(-c2ccccc2)c1-c1ccc(S(N)(=O)=O)cc1 [VALDECOXIB] is ____.
151.5

# get_value(readout='SODIUM', item= CC(=O)CC(c1ccccc1)c1c(O)c2ccccc2oc1=O (stereo unspecified) [WARFARIN] )
144.25
